- SYSTEM NAME: T1, N-terminal T7-tagged BACE2 (amino acids 20-465) (UniProt Q9Y5Z0 20-465)
- T1 sequence: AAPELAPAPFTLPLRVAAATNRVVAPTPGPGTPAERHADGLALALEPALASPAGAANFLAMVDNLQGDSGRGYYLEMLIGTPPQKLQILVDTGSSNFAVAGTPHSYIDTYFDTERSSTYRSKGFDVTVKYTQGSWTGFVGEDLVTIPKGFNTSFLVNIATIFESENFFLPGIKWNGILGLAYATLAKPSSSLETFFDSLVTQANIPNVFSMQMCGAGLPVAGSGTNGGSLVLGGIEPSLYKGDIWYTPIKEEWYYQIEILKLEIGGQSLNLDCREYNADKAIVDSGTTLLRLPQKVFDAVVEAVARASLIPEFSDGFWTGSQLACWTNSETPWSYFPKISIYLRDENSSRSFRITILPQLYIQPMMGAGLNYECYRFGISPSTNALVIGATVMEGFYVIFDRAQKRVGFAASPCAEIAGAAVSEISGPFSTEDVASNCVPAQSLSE
- EXPERIMENT DESCRIPTION: SPR
MEASURE: Kd (µM)
Numbers only here, please. The scale is µM.

IN: Specify measured Kd for Ac-YPYFLPISAK-NH2 [Pep#6] .
OUT: 66
